- System: RS4;11 leukaemia tumour line
- protocol details: In vitro cytotoxicity, Microculture Tetrazolium Assay (MTT)
- Assay type: cell-based
- details: Homo sapiens; RS4;11 cells, 48 hours exposure
Where a name gives a salt, the structure may show the parent alone.
observation type: IC50 (nM)
State the answer as a number, implicitly in nM.

# example entries with known answers
Cc1cc(C(=O)N(c2ccc(O)cc2)c2ccc3c(ccn3C)c2)cn1-c1cc2c(cc1C(=O)N1Cc3ccccc3C[C@H]1CN1CCOCC1)CCC2 [Example 117, hydrochloride] = 193
CC(C)n1ccc2cc(N(C(=O)c3cn(-c4cc5c(cc4C(=O)N4Cc6ccccc6C[C@H]4CN4CCN(C)CC4)OCO5)c4ccccc34)c3ccc(O)cc3)ccc21 [Example 100] = 43.4

Moving on to the next compound.
In one line, give reported IC50 of the entry NC[C@@H]1Cc2ccccc2CN1C(=O)c1cc(NCc2ccccc2)ccc1-n1nc(C(=O)N(c2ccccc2)c2ccccc2)c2ccccc21 [Example 142] .
2290
